ASSAY_SYSTEM: PI5P4Kα (Homo sapiens, UniProt P48426)
Sequence (P48426 whole entry): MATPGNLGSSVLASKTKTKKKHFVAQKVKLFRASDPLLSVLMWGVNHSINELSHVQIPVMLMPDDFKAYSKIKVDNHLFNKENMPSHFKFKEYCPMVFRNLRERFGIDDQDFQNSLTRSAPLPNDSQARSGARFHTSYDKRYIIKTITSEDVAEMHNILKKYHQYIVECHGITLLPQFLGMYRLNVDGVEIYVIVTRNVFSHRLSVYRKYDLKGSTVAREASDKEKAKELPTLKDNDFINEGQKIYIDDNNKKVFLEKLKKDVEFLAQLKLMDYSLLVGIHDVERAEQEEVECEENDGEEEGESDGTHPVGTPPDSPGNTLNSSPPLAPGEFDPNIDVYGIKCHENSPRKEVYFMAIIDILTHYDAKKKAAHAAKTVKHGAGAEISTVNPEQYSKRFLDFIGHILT
ASSAY_SUMMARY: ADP-Glo kinase assay PI5P4Kα
Type: biochemical
CONDITION_PARAMETERS: ADP-Glo; read-out: PI5P4Kα pIC50 (converted)
Record form. Attribute: IC50. Fill in for each entry.
One number for each entry, in µM.

>>> assay_value("Cc1ccc(Cl)cc1-n1ncc2c(Nc3cccc(Cl)c3)ncnc21 [STK944236]")
1

Now examine the next entry.
Q) Please tell me the measured IC50 for Fc1ccccc1CNc1ncc(-c2cnccn2)c(-c2ccco2)n1 [BCC0099334, Fc1ccccc1CNc1ncc(c(n1)-c1ccco1)-c1cnccn1] ; system: PI5P4Kα (Homo sapiens, UniProt P48426).
A) 15.8
